# Test system: JAK2-dependent nuclear translocation of STAT5-GFP in U-2 OS osteosarcoma cells
# Test name: STAT5 nuclear translocation assay (Cellomics), rhEpo stimulated U-2 OS STAT5-GFP cells
# Type: cell-based
# Measurement conditions: Homo sapiens, U2OS; STAT5 translocation pathway
Assign pIC50 to each entry below.
Hey, just a heads up that pIC50 is the negative log base 10 of the concentration in molar.

INPUT: Which pIC50 value belongs to Cc1ccc(Nc2ncc3ccn(-c4cc(F)c(CN5CCOCC5)c(F)c4)c3n2)cc1Cn1cc(CN(C)C)nn1 [Example 418] ?
OUTPUT: 7.80

INPUT: Record request: pIC50 value, item Cc1ccc(Nc2ncc3ccn(-c4cc(F)c(CN5CCOCC5)c(F)c4)c3n2)cc1CN1CCN(CCN(C)C)C(=O)C1 [Example 410]
OUTPUT: 8.08

INPUT: Can you share its pIC50? I mean this molecule: Cc1ccc(Nc2ncc3ccn(-c4cc(F)c(CN5CCOCC5)c(F)c4)c3n2)cc1CN1CCN(C)CC1=O [Example 415]
OUTPUT: 8.16

INPUT: May I ask what pIC50 has been recorded for Fc1cc(-n2ccc3cnc(Nc4ccnc(OCCN5CCOCC5)c4)nc32)cc(F)c1CN1CCOCC1 [Example 352] ?
OUTPUT: 7.66

INPUT: Which pIC50 value belongs to Cc1ccc(Nc2ncc3ccn(-c4cc(F)c(CN5CCOCC5)c(F)c4)c3n2)cc1CN1CCC(F)(F)C1 [Example 393] ?
OUTPUT: 7.28

INPUT: Entry under review: Cc1ccc(Nc2ncc3ccn(-c4cc(F)c(CN5CCOCC5)c(F)c4)c3n2)cc1CN1CC(O)C1 [Example 394] . Reported pIC50?
OUTPUT: 8.80

INPUT: Consider the molecule COCc1c(F)cc(-n2ccc3cnc(Nc4ccc(N5CCN(C)CC5)nc4)nc32)cc1F [Example 446] and give its measured pIC50.
OUTPUT: 8.89

INPUT: I have this molecule here, Fc1cc(-n2ccc3cnc(Nc4cccc([C@H]5COCCN5)c4)nc32)cc(F)c1CN1CCOCC1 [Example 507] , and I need its recorded pIC50.
OUTPUT: 9.70

INPUT: Reported pIC50, molecule Cc1ccc(Nc2ncc3ccn(-c4cc(F)c(CN5CCOCC5=O)c(F)c4)c3n2)cc1CN1CCNCC1 [Example 485] : ____
OUTPUT: 6.96

INPUT: Endpoint output: pIC50 of CC(C)(C)NS(=O)(=O)c1ccc(-n2ccc3cnc(Nc4ccc(OCCN5CCCC5)cc4)nc32)cc1 [Example 363] . Value?
OUTPUT: 7.96
